Source listed as PubChem BioAssay AID1159580.

Readings of normalized growth for the listed compounds
experiment: chemical genetic growth profiling, strain panel (AID 1159580);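 further: tested at 20 µM; growth read once vehicle control cultures reached saturation at 30 °C; 1 = growth at the plate median or of vehicle wells; lower values mean less growth of the strain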; conditions: S. cerevisiae deletion strains, growth OD, locus YMR078C, strain ctf18, stronger effect = lower value
Among all 5,500 compounds or so, about 2,000 (36%) were called active. Roughly 18% stayed inconclusive and do not appear here. This is one part of the list.
Hey, just send me the number, nothing else.

Reference set (6 entries):
INSERT INTO measurements (compound, number) VALUES
  ('COc1cc2cc3c4cc(OC)c(OC)cc4cc[n+]3c(C)c2cc1OC', 1.02),
  ('CCOc1ccc(C(=O)c2ccc(O)c(O)c2O)cc1', 0.965),
  ('OCCN1CCN(CCCN2c3ccccc3Sc3ccc(C(F)(F)F)cc32)CC1', 0.986),
  ('C#C[C@]1(O)CCC2C3CCC4=Cc5oncc5C[C@]4(C)C3CC[C@@]21C (some centres undefined)', 0.923),
  ('CC1(C)C(=O)[C@@H]2C[C@@]3(O)C4=CC(=O)O[C@@H](c5ccoc5)[C@]4(C)CCC3[C@@](C)(C2=O)[C@H]1CC(=O)O (some centres undefined)', 0.985),
  ('CC(=O)OCC(=O)[C@@]1(O)CCC2C3CC[C@@H]4C[C@H](OC(C)=O)CC[C@]4(C)C3C(=O)C[C@@]21C (some centres undefined)', 1.02);

Req: Consider the compound shown here: CC[C@H]1CN2CCc3cc(OC)c(OC)cc3C2C[C@@H]1CC1NCCc2cc(OC)c(OC)cc21 (some centres undefined) What is its recorded normalized growth?
Resp: 0.996

Req: Endpoint output: normalized growth of NCC1OC(OC2C(CO)OC(OC3C(O)C(N)CC(N)C3OC3OC(CO)C(O)CC3N)C2O)C(N)C(O)C1OC1OC(CO)C(O)C(O)C1O (centres undefined) . Value?
Resp: 0.993

Req: normalized growth for "CCC1(CC)C(=O)C=CNC1=O" ?
Resp: 1.01

Req: Need normalized growth, item "CC[C@H]1OC(=O)[C@H](C)[C@@H](O[C@H]2C[C@@](C)(OC)[C@@H](O)[C@H](C)O2)[C@H](C)[C@@H](O[C@@H]2O[C@H](C)C[C@H](N(C)C)[C@H]2O)[C@](C)(O)C[C@@H](C)[C@@H]2N[C@@H](COCCOC)O[C@H]([C@H]2C)[C@]1(C)O"
Resp: 1.01
